Assay read-out pKi; system under study: human O-GlcNAcase (Homo sapiens (Human), UniProt O60502).
Sequence (O60502 whole entry): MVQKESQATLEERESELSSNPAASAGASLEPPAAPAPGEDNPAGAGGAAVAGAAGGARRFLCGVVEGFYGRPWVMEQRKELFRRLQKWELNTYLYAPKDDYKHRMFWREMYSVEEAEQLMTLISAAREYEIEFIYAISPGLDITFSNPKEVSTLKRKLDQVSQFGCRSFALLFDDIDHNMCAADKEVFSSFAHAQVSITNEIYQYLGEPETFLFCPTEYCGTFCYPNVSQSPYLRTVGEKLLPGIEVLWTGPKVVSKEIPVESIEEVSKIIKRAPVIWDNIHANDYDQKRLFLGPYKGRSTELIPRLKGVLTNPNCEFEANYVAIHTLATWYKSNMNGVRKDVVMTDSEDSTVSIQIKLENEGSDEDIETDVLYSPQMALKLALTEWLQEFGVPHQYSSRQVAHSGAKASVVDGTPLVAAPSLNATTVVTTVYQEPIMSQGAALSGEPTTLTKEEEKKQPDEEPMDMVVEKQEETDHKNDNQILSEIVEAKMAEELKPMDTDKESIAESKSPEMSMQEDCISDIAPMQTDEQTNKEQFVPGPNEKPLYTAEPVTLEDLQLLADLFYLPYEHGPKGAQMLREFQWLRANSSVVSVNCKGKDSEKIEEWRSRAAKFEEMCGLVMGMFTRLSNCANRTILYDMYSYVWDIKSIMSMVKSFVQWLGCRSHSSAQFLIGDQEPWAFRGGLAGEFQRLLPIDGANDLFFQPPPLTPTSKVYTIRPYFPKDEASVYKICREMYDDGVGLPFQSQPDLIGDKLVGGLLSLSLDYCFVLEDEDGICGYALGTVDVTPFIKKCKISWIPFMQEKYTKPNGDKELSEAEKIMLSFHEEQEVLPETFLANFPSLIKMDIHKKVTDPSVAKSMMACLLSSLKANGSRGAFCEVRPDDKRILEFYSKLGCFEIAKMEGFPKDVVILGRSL
// returns pKi (minus log10 of molar concentration), number only

Look over these answered cases.
# Sample Smiles, pKi
rows = [
    ("CC(=O)Nc1ncc(CN2CC/C(=C\\c3ccc(F)nc3)C[C@H]2C)s1", 6.91),
    ("COC(=O)c1ccc(C=C2CCN(Cc3cnc(NC(C)=O)s3)CC2)cc1", 8.86),
    ("CC(=O)Nc1ncc(CN2CCC(=Cc3ccc(F)nc3)CC2)s1", 8.68),
    ("CC(=O)Nc1ncc(CN2CCC(=Cc3ccc(C(=O)O)cc3)CC2)s1", 9.49),
    ("CC(=O)Nc1ncc(CN2CC/C(=C\\c3ccccc3)C[C@H]2C)s1", 6.39),
]

The molecule "CC(=O)Nc1ncc(CN2CCC(=Cc3ccc(O)nc3)CC2)s1" , when measured on human O-GlcNAcase (Homo sapiens (Human), UniProt O60502), yielded pKi of 8.96

Measured pKi (human O-GlcNAcase (Homo sapiens (Human), UniProt O60502)), entry "COc1ccc(C=C2CCN(Cc3cnc(NC(C)=O)s3)CC2)cc1OC" : 9.41

Tested system human O-GlcNAcase (Homo sapiens (Human), UniProt O60502); pKi recorded for "CC(=O)Nc1ncc(CN2CCC(=Cc3ccc4[nH]ccc4c3)CC2)s1" was 9.37

For the molecule "CC(=O)Nc1ncc(CN2CCC(=Cc3cccc(CO)c3)CC2)s1" , the measured pKi on human O-GlcNAcase (Homo sapiens (Human), UniProt O60502) was 9.16

I looked up "CC(=O)Nc1ncc(CN2CCC(=Cc3ccc(C)cc3)CC2)s1" and its pKi for human O-GlcNAcase (Homo sapiens (Human), UniProt O60502) was 9.13

* * *

human O-GlcNAcase (Homo sapiens (Human)): recorded Ki for assorted molecules
Please append the unit to your numeric answer.

Solved cases below.
# Molecule, Ki
records = [
    ("COc1ccc(C=C2CCN(Cc3cnc(NC(C)=O)s3)CC2)cc1 [Example 46]", "2 nM"),
    ("CC(=O)Nc1ncc(CN2CC/C(=C/c3ccccc3)C[C@H]2C)s1 [Example 35]", "56.6 nM"),
    ("CC(=O)Nc1ncc(CN2CCC(=Cc3ccc(C(=O)N(C)C)cc3)CC2)s1 [Example 31]", "0.117 nM"),
]

Read the next record carefully.
The molecule CC(=O)Nc1ncc(CN2CCC(=Cc3cncnc3)CC2)s1 [Example 15] , when measured on human O-GlcNAcase (Homo sapiens (Human)), yielded Ki of 3.37 nM

Data origin: patent US10913733B2
